Cited source: ChEMBL document CHEMBL3297654

System: HT-29
Test: Antiproliferative activity against human HT-29 cells after 24 and 72 hrs by MTT assay
Assay type: functional, cell-based
pIC50: −log10 of the molar value.
pIC50 for assorted compounds

- compound: "CC(=O)O[C@H]1CC[C@]2(C)[C@H]3CC=C4[C@@H]5CC(C)(C)CC[C@]5(C(=O)OCc5ccccc5)CC[C@@]4(C)[C@]3(C)CC[C@H]2[C@]1(C)C=O"
  pIC50: 4.99
- compound: "CC(=O)O[C@H]1C(=O)[C@@]2(C)[C@H]([C@H](OC(=O)c3ccccc3)[C@]3(O)C[C@H](OC(=O)[C@H](O)[C@@H](NC(=O)c4ccccc4)c4ccccc4)C(C)=C1C3(C)C)[C@]1(OC(C)=O)CO[C@@H]1C[C@@H]2O [PACLITAXEL]"
  pIC50: 6.54
- compound: "COc1cccc2c1C(=O)c1c(O)c3c(c(O)c1C2=O)C[C@@](O)(C(=O)CO)C[C@@H]3O[C@H]1C[C@H](N)[C@H](O)[C@H](C)O1 [DOXORUBICIN]"
  pIC50: 6.51
- compound: "CC1(C)CC[C@]2(C(=O)O)CC[C@]3(C)C(=CC[C@@H]4[C@@]5(C)CC[C@H](O)[C@@](C)(C=O)[C@@H]5CC[C@]43C)[C@@H]2C1"
  pIC50: 4.92
- compound: "CC(=O)O[C@H]1CC[C@]2(C)[C@H]3CC=C4[C@@H]5CC(C)(C)CC[C@]5(C(=O)O)CC[C@@]4(C)[C@]3(C)CC[C@H]2[C@]1(C)C=O"
  pIC50: 4.95

---

Tested on: Bacillus cereus
Assay: Antimicrobial activity against Bacillus cereus ATCC 11778 for 24 hrs by microdillution method
Assay type: functional
Conditions: ATCC 11778, 24 h

- test smiles: "CC(=O)O[C@H]1CC[C@]2(C)[C@H]3CC=C4[C@@H]5CC(C)(C)CC[C@]5(C(=O)O)CC[C@@]4(C)[C@]3(C)CC[C@H]2[C@]1(C)C=O"
  MIC: "128 µg/mL"
- test smiles: "CN[C@@H]1[C@H](O[C@H]2[C@H](O[C@H]3[C@H](O)[C@@H](O)[C@H](N=C(N)N)[C@@H](O)[C@@H]3N=C(N)N)O[C@@H](C)[C@]2(O)C=O)O[C@@H](CO)[C@H](O)[C@H]1O"
  MIC: "64 µg/mL"
- test smiles: "CC(=O)O[C@H]1CC[C@]2(C)[C@H]3CC=C4[C@@H]5CC(C)(C)CC[C@]5(C(=O)O)CC[C@@]4(C)[C@]3(C)CC[C@H]2[C@]1(C)/C=N/NC(N)=S"
  MIC: "32 µg/mL"
- test smiles: "CC1(C)CC[C@]2(C(=O)O)CC[C@]3(C)C(=CC[C@@H]4[C@@]5(C)CC[C@H](O)[C@@](C)(C=O)[C@@H]5CC[C@]43C)[C@@H]2C1"
  MIC: "32 µg/mL"
- test smiles: "CC1(C)CC[C@]2(C(=O)O)CC[C@]3(C)C(=CC[C@@H]4[C@@]5(C)CC[C@H](O)[C@@](C)(/C=N/O)[C@@H]5CC[C@]43C)[C@@H]2C1"
  MIC: "128 µg/mL"
- test smiles: "CC(=O)O[C@H]1CC[C@]2(C)[C@H]3CC=C4[C@@H]5CC(C)(C)CC[C@]5(C(=O)O)CC[C@@]4(C)[C@]3(C)CC[C@H]2[C@]1(C)/C=N\\O"
  MIC: "64 µg/mL"

---

Test system: HT-29
Test: Antiproliferative activity against human HT-29 cells after 24 and 72 hrs by MTT assay
Format: functional, cell-based
IC50 for assorted molecules
experimental endpoint: IC50 (µM)

- test smiles: "CC1(C)CC[C@]2(C(=O)OCc3ccccc3)CC[C@]3(C)C(=CC[C@@H]4[C@@]5(C)CC[C@H](O)[C@@](C)(C=O)[C@@H]5CC[C@]43C)[C@@H]2C1"
  experimental endpoint: "IC50"
  recorded result: 8.51
- test smiles: "CC(=O)O[C@H]1CC[C@]2(C)[C@H]3CC=C4[C@@H]5CC(C)(C)CC[C@]5(C(=O)OCc5ccccc5)CC[C@@]4(C)[C@]3(C)CC[C@H]2[C@]1(C)/C=N/O"
  experimental endpoint: "IC50"
  recorded result: 21.4
- test smiles: "CC(=O)O[C@H]1CC[C@]2(C)[C@H]3CC=C4[C@@H]5CC(C)(C)CC[C@]5(C(=O)O)CC[C@@]4(C)[C@]3(C)CC[C@H]2[C@]1(C)/C=N/NC(N)=S"
  experimental endpoint: "IC50"
  recorded result: 13.3
- test smiles: "CC1(C)CC[C@]2(C(=O)OCc3ccccc3)CC[C@]3(C)C(=CC[C@@H]4[C@@]5(C)CC[C@H](O)[C@@](C)(/C=N/NC(N)=S)[C@@H]5CC[C@]43C)[C@@H]2C1"
  experimental endpoint: "IC50"
  recorded result: 15
- test smiles: "CC1(C)CC[C@]2(C(=O)O)CC[C@]3(C)C(=CC[C@@H]4[C@@]5(C)CC[C@H](O)[C@@](C)(/C=N/O)[C@@H]5CC[C@]43C)[C@@H]2C1"
  experimental endpoint: "IC50"
  recorded result: 10.9
- test smiles: "CC(=O)O[C@H]1CC[C@]2(C)[C@H]3CC=C4[C@@H]5CC(C)(C)CC[C@]5(C(=O)O)CC[C@@]4(C)[C@]3(C)CC[C@H]2[C@]1(C)/C=N\\O"
  experimental endpoint: "IC50"
  recorded result: 6.71
- test smiles: "CC1(C)CC[C@]2(C(=O)OCc3ccccc3)CC[C@]3(C)C(=CC[C@@H]4[C@@]5(C)CC[C@H](O)[C@@](C)(/C=N/O)[C@@H]5CC[C@]43C)[C@@H]2C1"
  experimental endpoint: "IC50"
  recorded result: 8.01

---

Test: Antiproliferative activity against human Saos2 cells after 24 and 72 hrs by MTT assay
Format: functional, cell-based
Conditions: SAOS-2
experimental endpoint: log10 IC50 (log10 of the value in µM)

- compound: "CC(=O)O[C@H]1CC[C@]2(C)[C@H]3CC=C4[C@@H]5CC(C)(C)CC[C@]5(C(=O)O)CC[C@@]4(C)[C@]3(C)CC[C@H]2[C@]1(C)/C=N\\O"
  experimental endpoint: "log10 IC50"
  recorded result: 0.95
- compound: "CC(=O)O[C@H]1CC[C@]2(C)[C@H]3CC=C4[C@@H]5CC(C)(C)CC[C@]5(C(=O)O)CC[C@@]4(C)[C@]3(C)CC[C@H]2[C@]1(C)/C=N/NC(N)=S"
  experimental endpoint: "log10 IC50"
  recorded result: 1.00
- compound: "COc1cccc2c1C(=O)c1c(O)c3c(c(O)c1C2=O)C[C@@](O)(C(=O)CO)C[C@@H]3O[C@H]1C[C@H](N)[C@H](O)[C@H](C)O1 [DOXORUBICIN]"
  experimental endpoint: "log10 IC50"
  recorded result: -0.48
- compound: "CC(=O)O[C@H]1CC[C@]2(C)[C@H]3CC=C4[C@@H]5CC(C)(C)CC[C@]5(C(=O)OCc5ccccc5)CC[C@@]4(C)[C@]3(C)CC[C@H]2[C@]1(C)/C=N/O"
  experimental endpoint: "log10 IC50"
  recorded result: 1.07
- compound: "CC(=O)O[C@H]1CC[C@]2(C)[C@H]3CC=C4[C@@H]5CC(C)(C)CC[C@]5(C(=O)O)CC[C@@]4(C)[C@]3(C)CC[C@H]2[C@]1(C)C=O"
  experimental endpoint: "log10 IC50"
  recorded result: 0.92

---

Tested on: MCF7
Experiment: Antiproliferative activity against human MCF7 cells after 24 and 72 hrs by MTT assay
Type: functional, cell-based
experimental endpoint: log10 IC50 (log10 of the value in µM)

- test smiles: "CC1(C)CC[C@]2(C(=O)OCc3ccccc3)CC[C@]3(C)C(=CC[C@@H]4[C@@]5(C)CC[C@H](O)[C@@](C)(C=O)[C@@H]5CC[C@]43C)[C@@H]2C1"
  assayed system: "MCF7"
  experimental endpoint: "log10 IC50"
  recorded result: 0.71
- test smiles: "CC1(C)CC[C@]2(C(=O)OCc3ccccc3)CC[C@]3(C)C(=CC[C@@H]4[C@@]5(C)CC[C@H](O)[C@@](C)(/C=N/NC(N)=S)[C@@H]5CC[C@]43C)[C@@H]2C1"
  assayed system: "MCF7"
  experimental endpoint: "log10 IC50"
  recorded result: 0.78
- test smiles: "CC1(C)CC[C@]2(C(=O)O)CC[C@]3(C)C(=CC[C@@H]4[C@@]5(C)CC[C@H](O)[C@@](C)(/C=N/O)[C@@H]5CC[C@]43C)[C@@H]2C1"
  assayed system: "MCF7"
  experimental endpoint: "log10 IC50"
  recorded result: 0.88
- test smiles: "CC(=O)O[C@H]1C(=O)[C@@]2(C)[C@H]([C@H](OC(=O)c3ccccc3)[C@]3(O)C[C@H](OC(=O)[C@H](O)[C@@H](NC(=O)c4ccccc4)c4ccccc4)C(C)=C1C3(C)C)[C@]1(OC(C)=O)CO[C@@H]1C[C@@H]2O"
  assayed system: "MCF7"
  experimental endpoint: "log10 IC50"
  recorded result: -0.48
- test smiles: "CC(=O)O[C@H]1CC[C@]2(C)[C@H]3CC=C4[C@@H]5CC(C)(C)CC[C@]5(C(=O)O)CC[C@@]4(C)[C@]3(C)CC[C@H]2[C@]1(C)C=O"
  assayed system: "MCF7"
  experimental endpoint: "log10 IC50"
  recorded result: 1.31
